- Experiment notes: gradient 5% acetonitrile 3 min, to 50% in 2 min, to 85% in 15 min, held 3 min, 100 µL/min
- Conditions used: column: Zorbax Extend-C18 2.1 x 50 mm; eluents: water / acetonitrile, 0.1% formic acid
Assign class by RP-LC retention time: not lower than 800 s means y; lower than 800 s means n.

{"Compound": "CCn1cc(S(=O)(=O)N2CC(F)(F)C[C@H]2COc2cccnc2)cn1", "Label class": "n"}
{"Compound": "O=C(Cc1nnc(-c2cnccn2)o1)Nc1cccc(F)c1", "Label class": "n"}
{"Compound": "O=C(Cn1c(=O)c2cc(C3CC3)nn2c2ncccc21)NCc1ccccc1", "Label class": "n"}
{"Compound": "CC(C)n1cnc(S(=O)(=O)N2CCCC(C(=O)Nc3ccc(Br)cc3F)C2)c1 (centres undefined)", "Label class": "y"}
{"Compound": "COc1ccc(N2CC(c3noc(-c4cc(Cl)ccc4OC)n3)CC2=O)cc1 (centres undefined)", "Label class": "y"}
{"Compound": "CCc1ccccc1NC(=O)Cn1cnc2nc(N3CCCC(C(=O)NC(C)C)C3)sc2c1=O (centres undefined)", "Label class": "n"}
{"Compound": "Cc1ccc(NC(=O)C2CCCN(S(=O)(=O)c3c[nH]c(C(=O)N4CCCC4)c3)C2)cc1F (centres undefined)", "Label class": "y"}
{"Compound": "CCN(CC)C(=O)c1ccc(-c2nc3cc(NS(=O)(=O)c4ccccc4Cl)ccc3n2C)cc1", "Label class": "n"}
{"Compound": "O=C(Cn1c(CO)nc2ccccc21)N1CCCC1", "Label class": "n"}
{"Compound": "CCC(CC)N1CCN(C(=O)c2nc(N3CCSCC3)c3cn(C)nc3n2)CC1", "Label class": "n"}
{"Compound": "CCCN(CC1CCOC1)S(=O)(=O)c1cccc(F)c1 (centres undefined)", "Label class": "y"}
{"Compound": "CC(C)c1nnc(NC(=O)C2CCN(C(=O)c3ccc(F)cc3)CC2)s1", "Label class": "n"}
{"Compound": "COCC(=O)N1CCCN(c2cc(=O)n(C(C)C)c(=O)n2C(C)C)CC1", "Label class": "n"}
{"Compound": "CC(C)Cn1c(=O)c(C(=O)NCc2cccc(F)c2)nc2cccnc21", "Label class": "n"}
{"Compound": "CCOc1ccccc1NC(=O)CSc1ncc(-c2cccc(Br)c2)o1", "Label class": "y"}
{"Compound": "OC(C#Cc1ccccc1)(c1ccccc1)c1ccccc1", "Label class": "n"}
{"Compound": "Cn1cc(C(=O)NCc2ccc(F)cc2F)c(S(=O)(=O)N2CCSCC2)n1", "Label class": "y"}
{"Compound": "CN1C(=O)CSc2cnn(CC(=O)NC3CCCC3)c(=O)c21", "Label class": "n"}
{"Compound": "Cc1ccc(N(C)C(=O)C2CCN(S(=O)(=O)c3ccc(-c4noc(C5CC5)n4)cc3)CC2)cc1", "Label class": "y"}
{"Compound": "CCN(CC)C(=O)N1CCO[C@@H](COc2ccccn2)[C@@H]1c1ccccc1", "Label class": "y"}
{"Compound": "Cc1ccc(CNC(=O)N2CCN(Cc3nc4cc(-c5ccccc5)ccc4o3)CC2)cc1", "Label class": "y"}
{"Compound": "Cc1nn(CC(=O)NCC2CCCO2)c(=O)c2nc(-c3ccccc3)sc12 (centres undefined)", "Label class": "n"}
{"Compound": "CC(=O)Nc1ccc(-c2cc(C(=O)N3CCN(c4ccccn4)CC3)c3ccccc3n2)cc1", "Label class": "n"}
{"Compound": "CCN(c1ccccc1)S(=O)(=O)c1ccc2c(c1)N(C(C)=O)CCCS2", "Label class": "y"}
{"Compound": "Cc1noc(C)c1-c1ccc(S(=O)(=O)NC2CCCC2)cc1", "Label class": "y"}
{"Compound": "O=S(=O)(NCC1CCCO1)c1ccc(Cl)c(-c2nnc(-c3ccccc3)o2)c1 (centres undefined)", "Label class": "y"}
{"Compound": "COC(=O)c1cc2c(=O)n(Cc3ccc(OC)cc3)ccc2nc1C", "Label class": "y"}
{"Compound": "CCCOc1ccc(NC(=O)c2cc(=O)c3ccc(C)cc3o2)c2cccnc12", "Label class": "n"}
{"Compound": "CCCn1nc(CNC(=O)c2ccsc2)c2ccccc21", "Label class": "y"}
{"Compound": "Nc1ncnc2c1c(-c1cnc3[nH]ccc3c1)nn2C1CCCC1", "Label class": "n"}
{"Compound": "CCNC(=O)c1c2c(nc3ccc(F)cc13)CCC2", "Label class": "n"}
{"Compound": "O=C(Nc1ccc(N2CCCN(C(=O)C3CC3)CC2)cc1)c1cc(-c2ccc(F)cc2)n[nH]1", "Label class": "n"}
{"Compound": "CCCCOc1ccc(C(=O)Nc2nc3c(s2)CCc2ccc(OC)cc2-3)cc1", "Label class": "y"}
{"Compound": "Cc1cc(NC(=O)CCCS(=O)(=O)c2ccc(Cl)cc2)n(C)n1", "Label class": "n"}

====

- Experiment notes: gradient 5% acetonitrile 3 min, to 50% in 2 min, to 85% in 15 min, held 3 min, 100 µL/min
- Conditions used: column: Zorbax Extend-C18 2.1 x 50 mm; eluents: water / acetonitrile, 0.1% formic acid
Rule for this label: condition met means RP-LC retention time is less than 900 s; condition not met means RP-LC retention time is at least 900 s.

{"Molecule": "CSc1ccc(Cl)c(C(=O)N2CC(=O)Nc3ccccc32)c1", "Label class": "condition met"}
{"Molecule": "Cc1cc(C)cc(N2CCC(NC(=O)Nc3cc(C)ccc3C)C2=O)c1 (stereo not given)", "Label class": "condition not met"}
{"Molecule": "CN(CC1CCOCC1)C(=O)Nc1ccc2c(c1)OCCO2", "Label class": "condition met"}
{"Molecule": "NC(=O)[C@@H]1C[C@H](Oc2ccccc2)CN1C1CCCC1", "Label class": "condition met"}
{"Molecule": "O=C(Cc1ccc(Cl)cc1)Nc1nnc(C2CC(=O)N(c3ccc(F)cc3)C2)o1 (stereo not given)", "Label class": "condition met"}
{"Molecule": "O=C(Nc1c(-c2ccc(F)cc2)nc2ccccn12)c1ccc2c(c1)OCO2", "Label class": "condition met"}
{"Molecule": "COc1cc(OC)c(NC(=O)N(C)CCc2noc(-c3ccc(F)cc3)n2)cc1Cl", "Label class": "condition not met"}
{"Molecule": "CCn1ccnc1CC1COc2ccccc2O1 (stereo not given)", "Label class": "condition met"}
{"Molecule": "Cc1ccc(NC(=O)c2cccn2Cc2noc(C)n2)c(Cl)c1", "Label class": "condition not met"}
{"Molecule": "COc1ccc(-c2nc3cnccn3c2Nc2ccc(C(=O)NC3CCCCC3)cc2)cc1", "Label class": "condition met"}
{"Molecule": "Cc1cccc(-c2nnc(-c3cc(S(=O)(=O)N4CCCCC4)ccc3Cl)o2)c1", "Label class": "condition not met"}
{"Molecule": "CCCOc1nc2ccccc2nc1N1CCCC(C(=O)Nc2cccc(C)c2C)C1 (stereo not given)", "Label class": "condition not met"}
{"Molecule": "Cc1onc(-c2c(Cl)cccc2Cl)c1C(=O)N1CCN(C)CC1", "Label class": "condition met"}
{"Molecule": "CCOc1ccc(S(=O)(=O)N2CCC(C(=O)NCCOC)CC2)cc1C", "Label class": "condition met"}
{"Molecule": "Cc1ccsc1CN1CCn2nnc(CCC(=O)N3CCCC3)c2C1", "Label class": "condition met"}
{"Molecule": "CC1(C)NC(=O)N(CCCCCCN2C(=O)NC(C)(C)C2=O)C1=O", "Label class": "condition met"}
{"Molecule": "CCOC(=O)C1CCCN(c2c(N3CCC(Cc4ccccc4)CC3)c(=O)c2=O)C1 (stereo not given)", "Label class": "condition not met"}
{"Molecule": "CCOC(=O)c1csc(NC(=O)Nc2cccc(Cl)c2)n1", "Label class": "condition met"}

====

- Experiment notes: gradient 5% acetonitrile 3 min, to 50% in 2 min, to 85% in 15 min, held 3 min, 100 µL/min
- Conditions used: column: Zorbax Extend-C18 2.1 x 50 mm; eluents: water / acetonitrile, 0.1% formic acid
Here, each record is paired with measured RP-LC retention time data.
Quantity: RP-LC retention time (s)

{"Compound": "COc1ccc(NC(=O)c2cn(-c3ccc(C#N)cc3)cn2)cc1OC", "Unit string": "s", "Recorded measurement": 683}
{"Compound": "CCc1nc(-c2csc(S(=O)(=O)N3CCC(C(=O)Nc4ccc(C)cn4)CC3)c2)no1", "Unit string": "s", "Recorded measurement": 799}
{"Compound": "Cn1nc(C(=O)N2CCCC2)c2c1CCN(C(=O)CCC(=O)N1CCCCCC1)C2", "Unit string": "s", "Recorded measurement": 664}
{"Compound": "COc1cccc(N2CCN(C(=O)c3cn(-c4ccc(NC(C)=O)cn4)cn3)CC2)c1", "Unit string": "s", "Recorded measurement": 680}
{"Compound": "CS(=O)(=O)N1CCC(F)(c2nc(-c3ccccc3)no2)CC1", "Unit string": "s", "Recorded measurement": 913}
{"Compound": "CCOCCCNC(=O)C1CCCN(C(=O)c2[nH]c(C)cc2C)C1 (stereo not drawn)", "Unit string": "s", "Recorded measurement": 678}
{"Compound": "Cc1cc(F)ccc1NC(=O)C1CCN(S(=O)(=O)c2c(C)[nH]c(C)c2C(=O)N2CCCC2)CC1", "Unit string": "s", "Recorded measurement": 691}
{"Compound": "CN(C)c1ncccc1NC(=O)c1cccc(C#N)c1", "Unit string": "s", "Recorded measurement": 585}
{"Compound": "Cc1cc(C)c(CNC(=O)C2CCCN(c3cnc4nccnc4c3)C2)c(C)c1 (stereo not drawn)", "Unit string": "s", "Recorded measurement": 819}
{"Compound": "CSc1ccc(Cc2nnc(NC(=O)c3cccc(C(F)(F)F)c3)o2)cc1", "Unit string": "s", "Recorded measurement": 907}
{"Compound": "CCc1ccc(CNc2nc3ccncc3n(CC)c2=O)cc1", "Unit string": "s", "Recorded measurement": 701}
{"Compound": "COc1ccc(-c2nnc(-c3ccc(C)c(S(=O)(=O)Nc4ccc(Cl)cn4)c3)o2)cc1OC", "Unit string": "s", "Recorded measurement": 918}
{"Compound": "Cn1c(N2CCCC(C(=O)NCCN3CCN(c4ccccc4F)CC3)C2)cc(=O)n(C)c1=O (stereo not drawn)", "Unit string": "s", "Recorded measurement": 591}
{"Compound": "COc1ccccc1CC(=O)Nc1ccc2c(c1)CCC(=O)N2C", "Unit string": "s", "Recorded measurement": 721}
{"Compound": "CC(=O)N1CCc2sc(S(=O)(=O)N3CCN(c4cccc(Cl)c4)CC3)cc2C1", "Unit string": "s", "Recorded measurement": 957}
{"Compound": "O=C(Cc1ccsc1)N1CCC(c2nc(-c3ccccc3)no2)C1 (stereo not drawn)", "Unit string": "s", "Recorded measurement": 864}
{"Compound": "Cn1c(=O)c2c(ncn2CC(=O)N2CCCC(c3nc(C4CCOCC4)no3)C2)n(C)c1=O (stereo not drawn)", "Unit string": "s", "Recorded measurement": 613}
{"Compound": "CCn1nnc2ccc(-c3noc(-c4ccc(OC)c(OC)c4)n3)cc21", "Unit string": "s", "Recorded measurement": 963}
{"Compound": "COc1ccc(NC(=O)c2cc3c(s2)CN(C2CCCC2)C3)c(OC)c1", "Unit string": "s", "Recorded measurement": 616}
{"Compound": "Cc1cc(N2CCN(S(=O)(=O)c3ccc(F)c(F)c3)CC2)nc(N2CCCCC2)n1", "Unit string": "s", "Recorded measurement": 775}
{"Compound": "CCCCCCNC(=O)C1CCCN(c2ncc(-c3ccc(F)cc3)cn2)C1 (stereo not drawn)", "Unit string": "s", "Recorded measurement": 1160}
{"Compound": "Cc1ccc(CNC(=O)C2c3ccccc3CC(=O)N2C)o1 (stereo not drawn)", "Unit string": "s", "Recorded measurement": 693}
{"Compound": "NS(=O)(=O)c1ccc(NC(=O)Nc2ccc(F)cc2)cc1", "Unit string": "s", "Recorded measurement": 772}
{"Compound": "COc1ccc(NC(=O)C2CCCN(c3nc4c(s3)c(C)nn4-c3ccccc3)C2)cc1Cl (stereo not drawn)", "Unit string": "s", "Recorded measurement": 1190}
{"Compound": "CCOC(=O)c1nc(NCCCN2CCC(Cc3ccccc3)CC2)c2ccccc2n1", "Unit string": "s", "Recorded measurement": 690}
{"Compound": "COCc1nc2cccnc2n1C1CCN(C(=O)Nc2ccc(OC)cc2OC)CC1", "Unit string": "s", "Recorded measurement": 638}
{"Compound": "CCCS(=O)(=O)N1CC2(CCCCC2)CC1COCc1ccccc1 (stereo not drawn)", "Unit string": "s", "Recorded measurement": 1260}
{"Compound": "O=C(Cn1nc2c(N3CCCCCC3)nccn2c1=O)Nc1ccc2c(c1)OCCO2", "Unit string": "s", "Recorded measurement": 668}
{"Compound": "CCOc1ccc(NS(=O)(=O)c2cc(C(=O)N3CCN(c4ccc(C)cc4C)CC3)n[nH]2)cc1", "Unit string": "s", "Recorded measurement": 1030}
{"Compound": "CCOC(=O)c1[nH]c(C)c(CCC(=O)N2CCC(C(=O)NCc3ccc(OC)cc3OC)CC2)c1C", "Unit string": "s", "Recorded measurement": 799}
{"Compound": "CCc1cc(=O)n(CC(=O)Nc2cc(F)cc(F)c2)c(N2CCOCC2)n1", "Unit string": "s", "Recorded measurement": 802}
{"Compound": "COCCC1CCN(C(=O)CN(C)C(=O)Cc2c(C)noc2C)CC1", "Unit string": "s", "Recorded measurement": 627}
{"Compound": "CNC(=O)c1n[nH]c2c1CC(C(C)(C)C)CC2 (stereo not drawn)", "Unit string": "s", "Recorded measurement": 786}
{"Compound": "CCOC(=O)c1[nH]c(C)c(CN(Cc2ccc(C)cc2)C(=O)COC)c1C", "Unit string": "s", "Recorded measurement": 684}
{"Compound": "Cc1cccc(N2CCN(C(=O)CN3CCN(Cc4ccc(F)cc4Cl)C3=O)CC2)c1", "Unit string": "s", "Recorded measurement": 957}
{"Compound": "CCOc1cccc(-c2noc(Cn3c(=O)n(-c4ccc(C)cc4)c(=O)c4sccc43)n2)c1", "Unit string": "s", "Recorded measurement": 1090}
{"Compound": "O=C(Cn1nc2c(cc1=O)CCCCC2)Nc1nc(-c2ccccn2)cs1", "Unit string": "s", "Recorded measurement": 655}
{"Compound": "Cc1nc2cc(-c3noc(-c4ccc(C#N)cc4)n3)ccc2n(C(C)C)c1=O", "Unit string": "s", "Recorded measurement": 929}

Value source: the METLIN SMRT retention time set (Domingo-Almenara et al. 2019)
